# EXPERIMENT_DESCRIPTION: Metabolic stability in human liver microsomes assessed as compound remaining after 30 mins
# Assay type: ADME, Microsome
# CONDITION_DESCRIPTION: read-out: Stability
Overview of reported remaining at 0.5 h across a group of compounds:

SMILES_INPUT: CC(=O)c1ccc(N2CCC(CC(=O)Nc3nc4cc(C)ccc4o3)CC2)cc1
OBSERVATION_TYPE: remaining at 0.5 h
READOUT_VALUE: 53%

SMILES_INPUT: CC(C)(C)OC(=O)N1CCC(CC(=O)Nc2nc3ccccc3o2)CC1
OBSERVATION_TYPE: remaining at 0.5 h
READOUT_VALUE: 83%

API: the following record is the query input.
Reported remaining at 0.5 h ( "CC(=O)c1ccc(N2CCC(CC(=O)Nc3nc4cc(Cl)ccc4o3)CC2)cc1" ) = 45%

* * *

# EXPERIMENT_DESCRIPTION: Metabolic stability in human liver microsomes assessed as compound remaining after 30 mins
# Assay type: ADME, Microsome
# CONDITION_DESCRIPTION: read-out: Stability
OBSERVATION_TYPE: remaining at 0.5 h (%)
Give the value, in units of %, as a plain number.

SMILES_INPUT: Cc1cc(C)c2oc(NC(=O)CC3CCN(C(=O)OC(C)(C)C)CC3)nc2c1
remaining at 0.5 h [%]: 22
--
SMILES_INPUT: CC(=O)c1ccc(N2CCC(CC(=O)Nc3nc4ccccc4o3)CC2)cc1
remaining at 0.5 h [%]: 62
--
SMILES_INPUT: Cc1ccc2oc(NC(=O)CC3CCN(C(=O)OC(C)(C)C)CC3)nc2c1
remaining at 0.5 h [%]: 6
--
SMILES_INPUT: CC(=O)c1ccc(N2CCC(CC(=O)Nc3nc4cc(C)cc(C)c4o3)CC2)cc1
remaining at 0.5 h [%]: 22

Reported remaining at 0.5 h ( "CC(C)(C)OC(=O)N1CCC(CC(=O)Nc2nc3cc(Cl)ccc3o2)CC1" ) = 43

* * *

# EXPERIMENT_DESCRIPTION: Inhibition of chimeric mouse-human sEH assessed as 6,8-difluoro-4-methylumbelliferyl trans-2,3-epoxy-3-phenylpropylcarbonate hydrolysis preincubated for 10 mins before addition of substrate by fluorometric assay
Values of IC50 strictly less than 20 nM map to 1.0, and values of at least 20 nM map to 0.0.

Here are 10 compounds together with their reported answers.
SMILES_INPUT: Cc1cccc2oc(NC(=O)CC3CCN(C(=O)OC(C)(C)C)CC3)nc12
CAT: 0.0
--
SMILES_INPUT: CC(=O)c1ccc(N2CCC(CC(=O)Nc3nc4ccc(C)cc4o3)CC2)cc1
CAT: 0.0
--
SMILES_INPUT: CC(=O)c1ccc(N2CCC(CC(=O)Nc3nc4ccccc4o3)CC2)cc1
CAT: 1.0
--
SMILES_INPUT: CC(C)(C)OC(=O)N1CCC(CC(=O)Nc2nc3cc(Cl)ccc3o2)CC1
CAT: 1.0
--
SMILES_INPUT: CC(=O)c1ccc(N2CCC(CC(=O)Nc3nc4c(C)cccc4o3)CC2)cc1
CAT: 0.0
--
SMILES_INPUT: CC(=O)c1ccc(N2CCC(CC(=O)Nc3nc4cc(Cl)ccc4o3)CC2)cc1
CAT: 1.0
--
SMILES_INPUT: Cc1ccc2nc(NC(=O)CC3CCN(C(=O)OC(C)(C)C)CC3)oc2c1
CAT: 0.0
--
SMILES_INPUT: Cc1cc(C)c2oc(NC(=O)CC3CCN(C(=O)OC(C)(C)C)CC3)nc2c1
CAT: 0.0
--
SMILES_INPUT: CC(=O)c1ccc(N2CCC(CC(=O)Nc3nc4cc(C)ccc4o3)CC2)cc1
CAT: 1.0
--
SMILES_INPUT: CC(C)(C)OC(=O)N1CCC(CC(=O)Nc2nc3ccccc3o2)CC1
CAT: 0.0

Ask: Is IC50 strictly under 20 nM for the entry "CC(=O)c1ccc(N2CCC(CC(=O)Nc3nc4cc(C)cc(C)c4o3)CC2)cc1" ?
Reply: 0.0

Ask: Is IC50 strictly under 20 nM for the entry "Cc1ccc2oc(NC(=O)CC3CCN(C(=O)OC(C)(C)C)CC3)nc2c1" ?
Reply: 1.0
